system-tested: hMC4-R (Homo sapiens (Human), UniProt P32245)
Sequence (P32245 whole entry): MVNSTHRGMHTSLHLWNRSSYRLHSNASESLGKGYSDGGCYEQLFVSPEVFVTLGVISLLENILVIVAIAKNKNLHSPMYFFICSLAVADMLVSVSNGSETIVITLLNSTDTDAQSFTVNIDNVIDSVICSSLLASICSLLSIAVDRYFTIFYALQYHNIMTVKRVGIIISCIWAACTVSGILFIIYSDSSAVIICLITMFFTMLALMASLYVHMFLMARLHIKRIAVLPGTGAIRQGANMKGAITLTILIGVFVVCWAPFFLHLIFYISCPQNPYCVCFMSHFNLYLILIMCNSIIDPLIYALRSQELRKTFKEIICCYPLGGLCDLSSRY
assay-text: Assay for agonist activity (cAMP accumulation in HEK-293 cells)
Assay type: cell-based
experimental-parameters: HEK293; NDP-α-MSH is 100%; read-out: intrinsic activity at MC4-R
quantity-name: Emax (%)

1 = CC(=O)N[C@@H](CCCNC(=N)N)C(=O)N[C@H]1CC(=O)NCCCC[C@@H](C(N)=O)NC(=O)[C@H](Cc2c[nH]c3ccccc23)NC(=O)[C@H](CCCNC(=N)N)NC(=O)[C@@H](Cc2ccccc2)NC(=O)[C@H](CCC(N)=O)NC1=O [Peptide No. 32]
2 = CC(=O)N[C@@H](CCCNC(=N)N)C(=O)N[C@H]1CC(=O)NCCCC[C@@H](C(N)=O)NC(=O)[C@H](Cc2c[nH]c3ccccc23)NC(=O)[C@H](CCCNC(=N)N)NC(=O)[C@@H](Cc2ccccc2)NC(=O)[C@H](C(C)C)NC1=O [Peptide No. 16]
Inquiry: Quick check, higher Emax between 1 and 2 ? Indicate your choice by writing its label.
Reply text: 1
(1: 98%, 2: 42%)

Value source: patent US10632171B2
